Reported values of pKd for individual entries
Target: T1, DLG3_1, Q92796
T1 sequence (Q92796 125-227, limits assumed, looked up): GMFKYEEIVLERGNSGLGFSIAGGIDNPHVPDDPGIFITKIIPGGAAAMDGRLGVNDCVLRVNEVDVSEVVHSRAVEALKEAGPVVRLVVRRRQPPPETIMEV
Assay: holdup assay
Parameters: key: below the threshold = too weak to quantify, mostly under pKd 3.1 to 4
Conditions: plain residues with an end cap or a label only (N-terminal biotin on a linker: ttds)
Give only the figure.

Worked examples follow.
* PSRDRKETSI [RALBP1, Q15311] | 3.3
* FVETQHQTQV [FAT3, Q8TDW7] | 3.85
* SGGKRKETLV [NET1, Q7Z628] | 4.61

q: Need pKd, item GARVSKETPL [MAPK12, P53778]
a: 3.49

q: Need pKd, item SSIDLWETAL [SLC15A5, A6NIM6]
a: 3.87
